Where these numbers come from: PubChem BioAssay

# Test system: R275C
# protocol-description: modulators of BK channel variants, profiling panel, selectivity assay, cell-based, U2OS BacMam, thallium flux, beta subunits (AID 1259406);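 further: initial slope of Thallos dye fluorescence rise after thallium is added; log ratio against the mean of 0.3% DMSO vehicle wells on the same plate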
# conditions: at 30 µM
Calls of active or inactive are those of the source.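 How the source made its calls: active means thallium flux through the channel raised or lowered by more than 3 SD from vehicle-only wells, actives on both sides; inactive means the rest.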
// classify into class 1 = active, class 0 = inactive

Record excerpt, results attached:
- Cc1nc(-c2ccc(S(=O)(=O)N3CCCN(c4ccc(C(F)(F)F)cn4)CC3)s2)cs1: class 0
- O=C(Nc1ccccc1)OCc1cc(-c2ccccc2)c(C(F)(F)F)s1: class 1
- CC(=O)Nc1ccc(OCC(=O)N2CCN(c3ncc(C(F)(F)F)cc3Cl)CC2)cc1: class 0
- O=C(CCn1nc(-c2ccc(F)cc2)ccc1=O)NCc1ccccc1: class 0
- Oc1ccccc1C=NCCN=Cc1ccccc1O: class 0
- O=C(OCCSc1sccc1[N+](=O)[O-])c1ccc(Cl)cc1: class 0

Write down the call the test reported for this molecule. Item: NC(=O)CN1C(=O)C(=Cc2ccco2)N=C1c1ccccc1
class 0

Name the outcome recorded for CCCCC(=O)OC1(C(=O)CO)CCC2C3CCC4=CC(=O)CCC4(C)C3C(O)CC21C (stereo unspecified) in the assay.
class 0

Look up the recorded call for CN(C)S(=O)(=O)c1ccc2c(c1)/C(=C\CCN1CCNCC1)c1ccccc1S2 in this test.
class 0

Record lookup: outcome of this test for Cc1cc(C)c(C(=O)O)c(CC(C)(C)C(=O)O)c1 ?
class 0

Record request — test call for Cc1ccc(C(=O)Cn2cc([N+](=O)[O-])nc2C)cc1
class 0
